The origin of these recorded values is patent US20190127480A1.

Examples of binders with documented kon follow.
biological target: T1, Soluble heterodimeric CD3 protein (hCD3-epsilon/hCD3-delta) with either a human Fc tag (hFcΔAdp/hFc) or a … (human, UniProt P07766 23-126; P04234 22-105); assay: SPR Biacore 25C antigen-capture
T1 construct: also called hCD3ε/δ; not shown: Fc tag: human (hFcΔAdp/hFc)
T1 sequence (P07766 23-126 limits assumed, stated change not applied, chain 1 of 2): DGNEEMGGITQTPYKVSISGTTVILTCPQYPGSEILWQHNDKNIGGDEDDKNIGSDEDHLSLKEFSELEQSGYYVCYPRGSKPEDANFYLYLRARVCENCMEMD
T1 sequence (P04234 22-105 limits assumed, stated change not applied, chain 2 of 2): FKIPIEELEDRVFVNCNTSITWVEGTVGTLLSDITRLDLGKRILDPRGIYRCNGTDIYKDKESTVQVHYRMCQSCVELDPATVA
Record the value in M⁻¹ s⁻¹, omitting the unit from your answer.

BINDER	NUMERIC VALUE
H2M3540N (antibody, mouse IgG2, V domains shown, H2M: mouse IgG2 Fc, human variable regions; divalent) VH: QVHLEESGGGVVQPGRSLRLSCSASGFTFSSYAMHWVRQAPGKGLEWVAVIWYDGTNKYYLDSVKGRFTISRDNSKNTLFLQMNSLRAEDTAVYYCARDRGSIITHWGQGTLVTVSS VL: DIQMTQSPSSLSASIGDRVTITCRASQNISSYLNWYQQKPGKAPKLLIYAASSLQSGVPSRFSGSGSGTDFTLTISSLQPEDFATYYCQQTYSTPPITFGQGTRLEIK	2.55e+06

Incoming: # input binder: H2M2706N (antibody, mouse IgG2, V domains shown, H2M: mouse IgG2 Fc, human variable regions; divalent) VH: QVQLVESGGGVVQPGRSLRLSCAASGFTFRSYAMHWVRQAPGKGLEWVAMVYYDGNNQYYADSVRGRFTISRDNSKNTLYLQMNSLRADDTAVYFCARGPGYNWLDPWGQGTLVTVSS VL: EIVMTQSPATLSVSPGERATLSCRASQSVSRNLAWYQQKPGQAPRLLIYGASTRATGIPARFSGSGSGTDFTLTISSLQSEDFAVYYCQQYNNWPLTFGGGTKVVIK ; wanted: its kon
Outgoing: 563000

Incoming: # input binder: H2M2777N (antibody, mouse IgG2, V domains shown, H2M: mouse IgG2 Fc, human variable regions; divalent) VH: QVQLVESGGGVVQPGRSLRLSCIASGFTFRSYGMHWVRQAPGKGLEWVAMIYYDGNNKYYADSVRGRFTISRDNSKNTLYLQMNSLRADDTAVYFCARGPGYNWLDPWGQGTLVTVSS VL: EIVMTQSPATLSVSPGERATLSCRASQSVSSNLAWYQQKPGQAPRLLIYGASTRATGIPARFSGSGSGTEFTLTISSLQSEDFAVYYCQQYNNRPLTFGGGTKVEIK ; wanted: its kon
Outgoing: 580000

Incoming: # input binder: H2M2711N (antibody, V domains shown, H2M: mouse IgG2 Fc, human variable regions; divalent) VH: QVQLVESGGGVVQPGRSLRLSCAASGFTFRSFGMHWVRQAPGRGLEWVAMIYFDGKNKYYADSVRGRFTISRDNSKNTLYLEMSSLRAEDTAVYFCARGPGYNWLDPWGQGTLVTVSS VL: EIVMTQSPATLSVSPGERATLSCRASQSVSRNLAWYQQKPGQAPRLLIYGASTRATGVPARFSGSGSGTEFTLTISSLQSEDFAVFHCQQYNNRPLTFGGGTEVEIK ; wanted: its kon
Outgoing: 1.59e+06

Incoming: # input binder: H2M2691N (antibody, mouse IgG2, V domains shown, H2M: mouse IgG2 Fc, human variable regions; divalent) VH: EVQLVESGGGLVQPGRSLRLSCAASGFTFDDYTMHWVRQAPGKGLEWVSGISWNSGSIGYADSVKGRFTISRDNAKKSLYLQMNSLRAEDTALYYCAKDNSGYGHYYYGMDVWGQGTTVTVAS VL: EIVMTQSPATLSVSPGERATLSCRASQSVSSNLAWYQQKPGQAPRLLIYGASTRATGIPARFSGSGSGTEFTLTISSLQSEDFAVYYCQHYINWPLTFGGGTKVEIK ; wanted: its kon
Outgoing: 39400

Incoming: # input binder: H2M2886N (antibody, mouse IgG2, V domains shown, H2M: mouse IgG2 Fc, human variable regions; divalent) VH: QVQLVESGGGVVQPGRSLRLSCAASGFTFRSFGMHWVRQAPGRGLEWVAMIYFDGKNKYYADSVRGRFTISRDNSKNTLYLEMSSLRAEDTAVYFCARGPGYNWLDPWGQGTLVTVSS VL: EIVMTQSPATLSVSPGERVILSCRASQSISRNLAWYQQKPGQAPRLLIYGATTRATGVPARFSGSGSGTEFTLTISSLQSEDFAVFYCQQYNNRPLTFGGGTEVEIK ; wanted: its kon
Outgoing: 1.42e+06
